Just for reference, patent US8420820B2 is where these values come from.

What follows is a collection of IC50 values obtained with PDK1 (Homo sapiens).
Sequence (O15530 51-556): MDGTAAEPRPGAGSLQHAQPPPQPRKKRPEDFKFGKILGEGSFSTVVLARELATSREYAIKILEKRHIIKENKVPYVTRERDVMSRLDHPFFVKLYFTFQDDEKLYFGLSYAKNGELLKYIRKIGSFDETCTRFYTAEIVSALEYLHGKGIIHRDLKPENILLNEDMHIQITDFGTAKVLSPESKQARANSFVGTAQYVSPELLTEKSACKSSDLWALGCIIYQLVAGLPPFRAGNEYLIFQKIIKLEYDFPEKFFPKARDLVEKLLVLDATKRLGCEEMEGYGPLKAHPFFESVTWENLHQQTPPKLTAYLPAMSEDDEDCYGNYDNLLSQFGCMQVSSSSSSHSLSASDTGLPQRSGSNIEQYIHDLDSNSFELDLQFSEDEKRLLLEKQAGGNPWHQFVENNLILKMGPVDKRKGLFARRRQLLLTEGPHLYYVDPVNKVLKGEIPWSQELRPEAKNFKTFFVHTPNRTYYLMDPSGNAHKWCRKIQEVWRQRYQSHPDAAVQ

CN1CCN(CCc2cc(-c3c[nH]c4ncccc34)nc(N)n2)CC1 :: 1000 to 10000 nM
CC(C)n1cc(-c2cnc3[nH]cc(-c4cc([C@@](C)(O)c5ccccc5)nc(N)n4)c3c2)cn1 :: 10 to 1000 nM
CCCC(O)c1cc(-c2c[nH]c3ncccc23)nc(N)n1 (centres unmarked) :: 1000 to 10000 nM
CC(C)C(O)c1cc(-c2c[nH]c3ncc(-c4cnn(C(C)C)c4)cc23)nc(N)n1 (centres unmarked) :: 10 to 1000 nM
CN(C)CCNC(=O)CCc1cc(-c2c[nH]c3ncccc23)nc(N)n1 :: 1000 to 10000 nM
CCc1cc(-c2c[nH]c3ncc(-c4ncc(-c5cccc(N)c5)o4)cc23)nc(N)n1 :: 1000 to 10000 nM

Enter IC50 (test system PDK1 (Homo sapiens)) for CCCCc1cc(-c2c[nH]c3ncc(-c4cnn(CCN(C)C)c4)cc23)nc(N)n1
10 to 1000 nM

Enter IC50 (test system PDK1 (Homo sapiens)) for Nc1nc(-c2c[nH]c3ncccc23)cc(C2CCCCC2)n1
10 to 1000 nM

Enter IC50 (test system PDK1 (Homo sapiens)) for CC(C)n1cc(-c2cnc3[nH]cc(-c4cc(C5CCCCC5)nc(N)n4)c3c2)cn1
10 to 1000 nM

Enter IC50 (test system PDK1 (Homo sapiens)) for CCc1cc(-c2c[nH]c3ncc(-c4cnn(CC(=O)N5CCCc6ccccc65)c4)cc23)nc(NC)n1
10 to 1000 nM

Enter IC50 (test system PDK1 (Homo sapiens)) for CCc1cc(-c2c[nH]c3ncc(-c4cnn(C5CCN(C(C)=O)CC5)c4)cc23)nc(N)n1
10 to 1000 nM

Enter IC50 (test system PDK1 (Homo sapiens)) for CC(C)n1cc(-c2cnc3[nH]cc(-c4cc(C5(O)CCCCC5)nc(N)n4)c3c2)cn1
10 to 1000 nM

Enter IC50 (test system PDK1 (Homo sapiens)) for CCc1cc(-c2c[nH]c3ncc(-c4cnn(CC(=O)N5CCCC5)c4)cc23)nc(NC)n1
10 to 1000 nM

Enter IC50 (test system PDK1 (Homo sapiens)) for CCc1cc(-c2c[nH]c3ncc(-c4cnn(CC5CCNC5)c4)cc23)nc(N)n1 (centres unmarked)
10 to 1000 nM

Enter IC50 (test system PDK1 (Homo sapiens)) for CCc1cc(-c2c[nH]c3ncc(-c4cnn(C5CCNCC5)c4)cc23)nc(N)n1
10 to 1000 nM

Enter IC50 (test system PDK1 (Homo sapiens)) for CCC[C@@H](O)c1cc(-c2c[nH]c3ncc(-c4cnn(C(C)C)c4)cc23)nc(N)n1
10 to 1000 nM

Enter IC50 (test system PDK1 (Homo sapiens)) for CCc1cc(-c2c[nH]c3ncc(-c4cnn(CC(=O)NC)c4)cc23)nc(N)n1
10 to 1000 nM

----------
tested on: PDK1 kinase activity in PC3 cells (phospho-T308-PKB); test: Cellular testing of PDK1 kinase inhibitors in PC3 cells (Luminex, phospho-T308-PKB); assay type: cell-based; conditions: Homo sapiens, PC-3, 0.5 h, 30 min with test substance, serum-free, phospho-T308-PKB by Luminex, read-out: IC50 [PC3 P-PKB Thr308]
outcome measure: IC50

Recorded IC50, per entry:
CCc1cc(-c2c[nH]c3ncc(-c4cnn(CCN5CCCC5)c4)cc23)nc(N)n1 :: 10 to 20 µM
CCc1cc(-c2c[nH]c3ncc(-c4cnn(CC5CCCO5)c4)cc23)nc(N)n1 (centres unmarked) :: 10 to 20 µM
CCCCc1cc(-c2c[nH]c3ncc(-c4cnn(CCO)c4)cc23)nc(N)n1 :: 1 to 10 µM
Nc1nc(CCN2CCOCC2)cc(-c2c[nH]c3ncccc23)n1 :: 10 to 20 µM
CC(C)n1cc(-c2cnc3[nH]cc(-c4cc(CCCO)nc(N)n4)c3c2)cn1 :: 10 to 20 µM

Respond only with IC50 recorded for CCc1cc(-c2c[nH]c3ncc(-c4cnn(C5CCN(C(C)=O)CC5)c4)cc23)nc(N)n1
10 to 20 µM

Respond only with IC50 recorded for CC(C)n1cc(-c2cnc3[nH]cc(-c4cc(C5(O)CCN(C(=O)OCc6ccccc6)CC5)nc(N)n4)c3c2)cn1
10 to 20 µM

Respond only with IC50 recorded for CCCCc1cc(-c2c[nH]c3ncc(-c4cnn(C5CCNCC5)c4)cc23)nc(N)n1
1 to 10 µM
